molecular target: Muscarinic acetylcholine receptor M1 (Homo sapiens); experiment: M1 receptor antagonist activity of analogs, SAR follow-up, cell-based, CHO-K1 hM1, Fluo-4 calcium, ACh EC80 (AID 435021); settings: at 30 µM, active compounds read low
Calls of active or inactive are those of the source.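 Rule for the calls: active = response to a near-maximal acetylcholine dose cut to 15% or less of untreated controls; inactive = the rest.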
# maps each entry to its remaining EC80 response

molecule | remaining EC80 response
O=C(CCNS(=O)(=O)c1cccc2nonc12)N1CCN(c2ccc(Br)cn2)CC1 | 0.916%
O=C(CCNS(=O)(=O)c1cccc2nsnc12)N1CCN(c2nc3ccccc3s2)CC1 | 6.19%
O=C(CCNS(=O)(=O)c1cccc2nsnc12)N1CCN(c2ncccn2)CC1 | 62.7% (inactive)
COc1cccnc1N1CCN(C(=O)C(F)CNS(=O)(=O)c2cccc3nonc23)CC1 (centres undefined) | 29.7% (inactive)
COc1cccnc1N1CCN(C(=O)CCNS(=O)(=O)c2ccc3nsnc3c2)CC1 | 77.1% (inactive)
O=C([C@H](F)CNS(=O)(=O)c1cccc2nonc12)N1CCN(c2ccncc2)CC1 | 8.19%
COc1ccccc1N1CCN(C(=O)CCNS(=O)(=O)c2cccc3nsnc23)CC1 | 102% (inactive)
Cc1ccnc(N2CCN(C(=O)CCNS(=O)(=O)c3cccc4nsnc34)CC2)c1 | 45.8% (inactive)
COc1cccc(N2CCN(C(=O)CCNS(=O)(=O)c3cccc4nsnc34)CC2)n1 | 14.4%
O=C(CCNS(=O)(=O)c1cccc2nsnc12)N1CCN(c2ncccc2C(F)(F)F)CC1 | 64.7% (inactive)
O=C(CCNS(=O)(=O)c1cccc2nsnc12)N1CCN(c2ccccc2F)CC1 | 63.5% (inactive)
Cc1cnccc1N1CCN(C(=O)CCNS(=O)(=O)c2cccc3nsnc23)CC1 | 1.43%
O=C(CCNS(=O)(=O)c1cccc2nsnc12)N1CCN(c2ccncc2)CC1 | 1.97%
O=C(CCNS(=O)(=O)c1cccc2nonc12)N1CCN(c2ccncc2)CC1 | 3.02%
COc1cccnc1N1CCN(C(=O)CCNS(=O)(=O)c2cn(C)c(C)n2)CC1 | 98.5% (inactive)
COc1cccnc1N1CCN(C(=O)CCNS(=O)(=O)c2cccc(-c3noc(C)n3)c2)CC1 | 97.5% (inactive)
COc1cccnc1N1CCN(C(=O)CCNS(=O)(=O)c2ccccc2[N+](=O)[O-])CC1 | 90% (inactive)
O=C(CCNS(=O)(=O)c1cccc2nsnc12)N1CCN(c2nc3ccccc3o2)CC1 | 13.3%
O=C(CCNS(=O)(=O)c1cccc2nsnc12)N1CCN(c2cccc(F)n2)CC1 | 3.23%
